Values from patent US20250250357A1

# targetDesc: T1, human MSLN-R2-his protein (human, UniProt Q13421 391-486)
# T1 construct: also called human MSLN-R2 protein; hMSLN-R2-his; not shown: His tag
# T1 sequence (Q13421 other isoform, or with tags, fused parts or gaps): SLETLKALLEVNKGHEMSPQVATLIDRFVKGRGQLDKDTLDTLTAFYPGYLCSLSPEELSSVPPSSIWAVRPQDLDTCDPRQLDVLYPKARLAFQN
# assayRemarks: ELISA, coated antigen; antibody 10 nM
outcomeMeasure: OD450 (OD450)
A number alone suffices; assume OD450.

Using the record for S009-F3.16.1 (antibody, human IgG1, kappa, V domains shown, Human-murine chimeric antibody, human IgG1/kappa constant regions) VH: EVKFEESGGGLVQPGGSMKLSCVASGFTFSNYWMNWVRQSPEKGLEWVAQIRLKSDNYATHYAESVKGRFSISRDDSKSSVYLQMNNLRAEDTGIYYCSVGTGGYWGQGTTLTVSS VL: DIVLTQSPASLALSPGKRATISCRASESVSIIGTDVIHWFQQKPGQPPKLLIYHASNLETGVPARFSGSGSRTDFTLTIDPVEEDDVAIYYCLQSRKIPWTFGGGTKLEIKR , report its OD450.
0.08
